Values compiled from ChEMBL document CHEMBL1821674.

Hi there, I'd appreciate the recorded Ki for every entry that follows.
# Experimental system: Glutathione reductase, mitochondrial (Homo sapiens, UniProt P00390)
# Sequence (P00390 whole entry): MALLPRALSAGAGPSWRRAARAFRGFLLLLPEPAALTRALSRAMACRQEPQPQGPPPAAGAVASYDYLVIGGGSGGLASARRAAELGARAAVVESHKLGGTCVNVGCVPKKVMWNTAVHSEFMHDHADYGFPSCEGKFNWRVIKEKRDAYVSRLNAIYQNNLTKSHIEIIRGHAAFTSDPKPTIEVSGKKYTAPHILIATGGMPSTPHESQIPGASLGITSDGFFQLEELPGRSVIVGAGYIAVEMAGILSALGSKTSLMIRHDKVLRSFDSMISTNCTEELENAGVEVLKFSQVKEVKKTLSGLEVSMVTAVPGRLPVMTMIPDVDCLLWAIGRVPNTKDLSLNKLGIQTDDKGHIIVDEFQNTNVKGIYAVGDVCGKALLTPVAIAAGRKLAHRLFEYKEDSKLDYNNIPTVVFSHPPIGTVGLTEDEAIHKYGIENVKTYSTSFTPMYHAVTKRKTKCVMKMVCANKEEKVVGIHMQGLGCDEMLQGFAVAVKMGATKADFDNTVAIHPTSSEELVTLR
# number only, unit µM dropped from output

// recorded Ki for N[C@@H](CCC(=O)O)C(=O)O [GLUTAMIC ACID] : 42.7

// recorded Ki for `O=C(O)CC[C@H](NC(=O)c1ccc([N+](=O)[O-])cc1)C(=O)O` : 0.211

// recorded Ki for COC(=O)C1=C(C)NC(C)=C(C(=O)OC)C1c1ccccc1[N+](=O)[O-] [NIFEDIPINE] : 17.4
